- tested system: Endothelin receptor type B (Sus scrofa, UniProt P35463)
- Sequence (P35463 whole entry): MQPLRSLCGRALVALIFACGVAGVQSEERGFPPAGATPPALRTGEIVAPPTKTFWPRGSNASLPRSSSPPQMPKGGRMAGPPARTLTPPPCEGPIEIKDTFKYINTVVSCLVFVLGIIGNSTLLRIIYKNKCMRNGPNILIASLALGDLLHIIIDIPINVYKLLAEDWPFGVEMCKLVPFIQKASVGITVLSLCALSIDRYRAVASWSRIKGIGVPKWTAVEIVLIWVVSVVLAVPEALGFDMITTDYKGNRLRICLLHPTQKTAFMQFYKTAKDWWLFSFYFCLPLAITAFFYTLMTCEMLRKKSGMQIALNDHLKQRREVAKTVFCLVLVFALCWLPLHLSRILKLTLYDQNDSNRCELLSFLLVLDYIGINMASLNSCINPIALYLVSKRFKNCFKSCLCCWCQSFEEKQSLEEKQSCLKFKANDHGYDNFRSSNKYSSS
Starred links: 1 amine or outer side, 2 acyl side, 3 side chain; linkers in the order of their positions; H or OH if unused. Residues, ends and D or L forms follow the SMILES beside them. Suc = O=C(CCC(=O)[*:2])[*:1]
Parameter: Ki. Scope: all listed entries.

Input: Consider the compound CC[C@H](C)[C@H](NC(=O)[C@H](CC(=O)O)NC(=O)[C@H](CC(C)C)NC(=O)[C@H](Cc1cnc[nH]1)NC(=O)CNC(=O)[C@H](Cc1ccccc1)NC(=O)[C@H](Cc1ccc(O)cc1)NC(=O)[C@@H](NC(=O)[C@H](C)NC(=O)[C@H](CCC(=O)O)NC(=O)CCC(=O)O)C(C)C)C(=O)N[C@H](C(=O)N[C@@H](Cc1c[nH]c2ccccc12)C(=O)O)[C@@H](C)CC (Suc-EAVYFGHLDIIW-OH) and give its measured Ki.
Output: 5.3 nM

Input: Follow-up item: "Cc1cc(C)cc(C(=O)N(C)[C@H](Cc2ccccc2)C(=O)NCCc2c[nH]c3ccccc23)c1"
Output: 5 nM
